Biological target: MDR1 (P-gp) (Homo sapiens)
Construct: host or cells: MDCK cells
Sequence (P08183 whole entry): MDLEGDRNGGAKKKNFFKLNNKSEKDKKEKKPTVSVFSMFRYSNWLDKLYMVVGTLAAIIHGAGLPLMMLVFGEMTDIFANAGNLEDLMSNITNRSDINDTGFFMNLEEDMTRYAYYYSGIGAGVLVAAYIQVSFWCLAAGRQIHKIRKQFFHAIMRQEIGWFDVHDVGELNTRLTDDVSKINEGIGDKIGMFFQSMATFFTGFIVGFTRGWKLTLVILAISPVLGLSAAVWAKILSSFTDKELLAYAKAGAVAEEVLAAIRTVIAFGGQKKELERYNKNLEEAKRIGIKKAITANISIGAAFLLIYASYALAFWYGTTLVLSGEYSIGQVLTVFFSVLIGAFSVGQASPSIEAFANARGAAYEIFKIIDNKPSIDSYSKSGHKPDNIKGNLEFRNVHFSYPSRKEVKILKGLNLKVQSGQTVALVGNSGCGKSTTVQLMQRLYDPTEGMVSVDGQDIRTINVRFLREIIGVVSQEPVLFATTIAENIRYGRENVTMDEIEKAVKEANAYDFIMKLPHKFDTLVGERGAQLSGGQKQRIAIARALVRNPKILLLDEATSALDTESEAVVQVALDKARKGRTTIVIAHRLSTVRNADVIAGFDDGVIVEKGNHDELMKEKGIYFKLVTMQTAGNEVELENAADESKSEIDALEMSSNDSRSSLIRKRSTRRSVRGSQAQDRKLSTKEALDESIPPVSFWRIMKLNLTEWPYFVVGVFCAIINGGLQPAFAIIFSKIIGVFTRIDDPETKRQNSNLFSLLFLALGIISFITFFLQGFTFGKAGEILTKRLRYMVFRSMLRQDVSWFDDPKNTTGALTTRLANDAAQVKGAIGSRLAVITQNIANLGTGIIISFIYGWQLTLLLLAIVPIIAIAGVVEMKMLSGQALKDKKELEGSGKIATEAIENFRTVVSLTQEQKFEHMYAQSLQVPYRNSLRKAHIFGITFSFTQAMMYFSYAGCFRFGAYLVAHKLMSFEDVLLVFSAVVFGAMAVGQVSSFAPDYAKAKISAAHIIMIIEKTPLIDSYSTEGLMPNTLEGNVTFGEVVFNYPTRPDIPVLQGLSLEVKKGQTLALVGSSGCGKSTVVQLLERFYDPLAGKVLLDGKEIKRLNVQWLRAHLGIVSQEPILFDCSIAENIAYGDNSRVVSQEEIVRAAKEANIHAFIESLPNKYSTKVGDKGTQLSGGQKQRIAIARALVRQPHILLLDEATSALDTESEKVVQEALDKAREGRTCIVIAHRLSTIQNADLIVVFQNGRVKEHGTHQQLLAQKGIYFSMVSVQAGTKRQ
Test: MDR1-MDCK assay (efflux ratio)
Format: in vitro ADME
Settings: human, MDCK-MDR1, 1 μM compound, 120 minutes incubation; read-out: MDR1-MDCK Efflux Ratio; (B-A/A-B)
readout type: efflux ratio at 120 min, 1 μM
Lab note: write the figure by itself, no unit.

Sample `CC(C)Oc1cc2nn(CCC(C)(C)O)cc2cc1C(=O)Nc1cnn2cccnc12` , system: MDR1 (P-gp) (Homo sapiens). Its efflux ratio at 120 min, 1 μM is 14.2

Sample `CC(C)Oc1cc2nn(C)cc2cc1C(=O)Nc1cccc(C(F)F)n1` , system: MDR1 (P-gp) (Homo sapiens). Its efflux ratio at 120 min, 1 μM is 0.3

Sample CC(C)Oc1cc2nn(C34CCC(C)(C3)OC4)cc2cc1C(=O)Nc1ccn(C)n1 (stereo not shown) , system: MDR1 (P-gp) (Homo sapiens). Its efflux ratio at 120 min, 1 μM is 1.5

Sample CC(C)Oc1cc2nn(C[C@H]3CCOC3)cc2cc1C(=O)Nc1cccc(C(F)F)n1 (single isomer, unassigned) , system: MDR1 (P-gp) (Homo sapiens). Its efflux ratio at 120 min, 1 μM is 0.7

Sample `COc1cc2nn(CCC(C)(C)OC)cc2cc1C(=O)Nc1cccc(C(F)F)n1` , system: MDR1 (P-gp) (Homo sapiens). Its efflux ratio at 120 min, 1 μM is 1.4

Sample COc1cccc(NC(=O)c2cc(C)c3nn(CC4CCOC4)cc3c2)n1.O=C(O)C(F)(F)F (stereo not shown) , system: MDR1 (P-gp) (Homo sapiens). Its efflux ratio at 120 min, 1 μM is 0.5

Sample `CC(C)Oc1cc2nn(C34COC(C)(C3)C4)cc2cc1C(=O)Nc1ccn(C)n1` , system: MDR1 (P-gp) (Homo sapiens). Its efflux ratio at 120 min, 1 μM is 1.6
